IC50 tested on STAT3 (Homo sapiens, UniProt P40763): recorded values
Sequence (P40763 whole entry, species assumed): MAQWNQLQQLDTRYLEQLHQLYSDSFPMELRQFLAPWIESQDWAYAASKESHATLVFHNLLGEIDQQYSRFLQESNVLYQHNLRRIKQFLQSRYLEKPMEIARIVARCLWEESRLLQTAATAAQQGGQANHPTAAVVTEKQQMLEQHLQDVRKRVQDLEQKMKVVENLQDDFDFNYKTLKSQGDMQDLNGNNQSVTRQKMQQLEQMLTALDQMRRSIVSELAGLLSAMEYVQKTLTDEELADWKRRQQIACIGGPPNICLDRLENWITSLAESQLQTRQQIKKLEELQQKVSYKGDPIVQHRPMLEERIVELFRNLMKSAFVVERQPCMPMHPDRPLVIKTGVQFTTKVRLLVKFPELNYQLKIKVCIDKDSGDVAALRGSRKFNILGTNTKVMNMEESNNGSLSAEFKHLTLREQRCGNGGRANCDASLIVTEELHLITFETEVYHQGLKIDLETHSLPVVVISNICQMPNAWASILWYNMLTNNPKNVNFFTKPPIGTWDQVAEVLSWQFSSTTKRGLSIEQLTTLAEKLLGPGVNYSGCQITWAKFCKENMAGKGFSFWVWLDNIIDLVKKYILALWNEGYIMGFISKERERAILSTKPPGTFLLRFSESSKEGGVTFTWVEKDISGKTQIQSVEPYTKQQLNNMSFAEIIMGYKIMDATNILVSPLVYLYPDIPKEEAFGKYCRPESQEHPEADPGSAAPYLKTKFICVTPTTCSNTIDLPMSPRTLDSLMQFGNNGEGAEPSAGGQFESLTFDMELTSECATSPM
One number for each entry, in µM.

See these solved cases before continuing.
{"Smiles Input": "O=P(O)(O)Oc1cc(-c2ccc3c(c2)OCCO3)cc(-c2ccc3c(c2)OCCO3)c1", "IC50 (µM)": 104}
{"Smiles Input": "O=P(O)(O)Oc1cc(-c2ccc(Cl)cc2)cc(-c2ccc(Cl)cc2)c1", "IC50 (µM)": 38.4}

Dear colleague, could you send me IC50 for each of the items below? Thanks.
1. COc1ccc(-c2cc(OP(=O)(O)O)cc(-c3ccc(OC)cc3)c2)cc1
2. COc1ccc(-c2cc(OP(=O)(O)O)cc(-c3ccc(Cl)cc3)c2)cc1

156
120

Dear colleague, could you send me IC50 for each of the items below? Thanks.
1. O=P(O)(O)Oc1cc(-c2ccc3c(c2)OCO3)cc(-c2ccc3c(c2)OCO3)c1
2. O=P(O)(O)Oc1cc(-c2cc(F)c(F)c(F)c2)cc(-c2cc(F)c(F)c(F)c2)c1

1. 129
2. 102

* * *

Target: STAT5a (Homo sapiens, UniProt P42229)
Construct: made in house
Assay: Fluorescence polarization competitive binding assay, STAT5a
For each entry below, report its pKi value.
Numbers only, as −log10 of the molar value.

See these solved cases before continuing.
{"Smiles Input": "O=P(O)(O)Oc1cc(-c2ccc3c(c2)OCCO3)cc(-c2ccc3c(c2)OCCO3)c1", "Measurement Name": "pKi", "Endpoint Value": 4.95}
{"Smiles Input": "O=P(O)(O)Oc1cc(-c2ccccc2)cc(-c2ccccc2)c1", "Measurement Name": "pKi", "Endpoint Value": 4.63}
{"Smiles Input": "O=P(O)(O)Oc1cc(-c2ccc(Cl)cc2)cc(-c2ccc(Cl)cc2)c1", "Measurement Name": "pKi", "Endpoint Value": 4.68}
{"Smiles Input": "COc1ccc(-c2cc(OP(=O)(O)O)cc(-c3ccc(OC)cc3)c2)cc1", "Measurement Name": "pKi", "Endpoint Value": 4.86}
{"Smiles Input": "COc1ccc(-c2cc(OP(=O)(O)O)cc(-c3ccc(Cl)cc3)c2)cc1", "Measurement Name": "pKi", "Endpoint Value": 4.71}
{"Smiles Input": "COc1ccc(-c2cc(OP(=O)(O)O)cc(-c3ccc(OC)c(OC)c3)c2)cc1OC", "Measurement Name": "pKi", "Endpoint Value": 4.78}

Now let's try a different one.
Entry under review: `COc1cc(OC)cc(-c2cc(OP(=O)(O)O)cc(-c3cc(OC)cc(OC)c3)c2)c1` . Reported pKi? 4.77

* * *

Biological target: STAT5a (Homo sapiens)
Sequence (P42229 1-794): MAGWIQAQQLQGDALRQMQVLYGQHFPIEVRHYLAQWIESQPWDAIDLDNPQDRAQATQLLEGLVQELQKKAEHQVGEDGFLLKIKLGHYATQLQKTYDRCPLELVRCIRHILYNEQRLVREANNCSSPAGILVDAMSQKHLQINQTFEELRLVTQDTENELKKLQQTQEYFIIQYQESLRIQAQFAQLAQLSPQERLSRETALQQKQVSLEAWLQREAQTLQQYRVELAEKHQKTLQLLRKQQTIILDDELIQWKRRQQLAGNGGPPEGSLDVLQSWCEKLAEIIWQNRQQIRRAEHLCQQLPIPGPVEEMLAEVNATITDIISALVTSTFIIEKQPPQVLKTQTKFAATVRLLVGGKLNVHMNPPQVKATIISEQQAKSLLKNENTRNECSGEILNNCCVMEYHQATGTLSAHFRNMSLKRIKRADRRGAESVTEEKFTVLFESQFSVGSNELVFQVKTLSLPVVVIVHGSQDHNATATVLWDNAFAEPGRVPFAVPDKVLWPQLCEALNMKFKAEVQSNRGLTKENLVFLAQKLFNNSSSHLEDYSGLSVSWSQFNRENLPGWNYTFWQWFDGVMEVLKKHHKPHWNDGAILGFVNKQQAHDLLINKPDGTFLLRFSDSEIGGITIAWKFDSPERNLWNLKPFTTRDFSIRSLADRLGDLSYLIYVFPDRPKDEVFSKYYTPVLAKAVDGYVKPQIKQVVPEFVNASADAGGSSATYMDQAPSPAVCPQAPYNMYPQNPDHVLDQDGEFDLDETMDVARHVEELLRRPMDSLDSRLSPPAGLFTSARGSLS
For each entry below, report its pIC50 value.
Give bare numbers, as −log10 of the molar value.

{"Smiles Input": "COc1ccccc1-c1cc(OP(=O)(O)O)cc(-c2ccccc2OC)c1", "pIC50": 4.05}
{"Smiles Input": "COc1cc(-c2cccc(OP(=O)(O)O)c2)cc(OC)c1OC", "pIC50": 3.97}
{"Smiles Input": "COc1cccc(-c2cc(OP(=O)(O)O)cc(-c3cccc(OC)c3OC)c2)c1OC", "pIC50": 4.35}

Dear colleague, could you send me pIC50 for each of the items below? Thanks.
1. COc1ccc(-c2cc(OP(=O)(O)O)cc(-c3ccc(OC)cc3)c2)cc1
2. COc1ccc(-c2cc(OP(=O)(O)O)cc(-c3ccc(OC)c(OC)c3)c2)cc1OC
3. O=P(O)(O)Oc1cc(-c2ccc3c(c2)OCO3)cc(-c2ccc3c(c2)OCO3)c1
4. COc1ccc(-c2cc(OP(=O)(O)O)cc(-c3ccc(Cl)cc3)c2)cc1

[4.55, 4.48, 4.55, 4.40]

Dear colleague, could you send me pIC50 for each of the items below? Thanks.
1. COc1cc(OC)cc(-c2cc(OP(=O)(O)O)cc(-c3cc(OC)cc(OC)c3)c2)c1
2. O=P(O)(O)Oc1cc(-c2ccccc2)cc(-c2ccccc2)c1
3. COc1ccc(-c2cc(OP(=O)(O)O)cc(-c3ccc(OC)c(OC)c3OC)c2)c(OC)c1OC
4. O=P(O)(O)Oc1cc(-c2ccc(Cl)cc2)cc(-c2ccc(Cl)cc2)c1
5. COc1cccc(-c2cc(OP(=O)(O)O)cc(-c3cccc(OC)c3)c2)c1
6. COc1cc(-c2cc(OP(=O)(O)O)cc(-c3cc(OC)c(OC)c(OC)c3)c2)cc(OC)c1OC
7. O=P(O)(O)Oc1cc(-c2cc(F)c(F)c(F)c2)cc(-c2cc(F)c(F)c(F)c2)c1
8. O=P(O)(O)Oc1cc(-c2ccc3c(c2)OCCO3)cc(-c2ccc3c(c2)OCCO3)c1

1. 4.46
2. 4.32
3. 3.95
4. 4.37
5. 4.49
6. 4.65
7. 4.66
8. 4.65

* * *

Biological target: STAT5a (Homo sapiens, UniProt P42229)
Construct: made in house
Sequence (P42229 1-794): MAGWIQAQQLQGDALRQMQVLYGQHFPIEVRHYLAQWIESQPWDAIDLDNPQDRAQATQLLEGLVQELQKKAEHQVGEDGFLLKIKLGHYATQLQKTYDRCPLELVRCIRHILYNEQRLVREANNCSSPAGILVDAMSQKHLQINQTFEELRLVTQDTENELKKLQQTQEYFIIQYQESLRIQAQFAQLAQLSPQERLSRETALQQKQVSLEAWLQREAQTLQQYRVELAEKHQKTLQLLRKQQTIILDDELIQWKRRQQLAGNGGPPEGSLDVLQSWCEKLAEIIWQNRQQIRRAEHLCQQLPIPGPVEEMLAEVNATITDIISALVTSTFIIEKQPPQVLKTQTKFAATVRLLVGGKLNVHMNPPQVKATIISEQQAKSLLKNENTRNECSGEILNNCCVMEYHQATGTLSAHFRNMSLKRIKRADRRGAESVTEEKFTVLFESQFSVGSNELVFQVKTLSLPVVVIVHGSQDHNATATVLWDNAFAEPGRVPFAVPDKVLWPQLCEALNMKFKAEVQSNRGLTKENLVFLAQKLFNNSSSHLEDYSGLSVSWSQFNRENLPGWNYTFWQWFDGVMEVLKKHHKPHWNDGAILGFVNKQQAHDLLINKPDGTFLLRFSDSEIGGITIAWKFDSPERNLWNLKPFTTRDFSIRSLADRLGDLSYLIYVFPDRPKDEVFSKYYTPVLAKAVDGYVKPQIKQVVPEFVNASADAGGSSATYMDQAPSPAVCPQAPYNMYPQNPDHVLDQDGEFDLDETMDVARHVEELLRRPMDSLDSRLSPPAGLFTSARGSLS
Test: Fluorescence polarization competitive binding assay, STAT5a
Details: read-out: Inhibition of STAT5a at 100 µM
For each entry below, report its inhibition at 100 µM value.
One number for each entry, in %.

{"Compound": "O=C(Nc1cccc(OP(=O)(O)O)c1)c1cccc(S(=O)(=O)N2CCCC2)c1 [Compound 7]", "Unit Info": "%", "inhibition at 100 µM": 26}

Dear colleague, could you send me inhibition at 100 µM for each of the items below? Thanks.
1. CN(C1CCCCC1)S(=O)(=O)c1cccc(C(=O)N2CCN(c3ccc(OP(=O)(O)O)cc3)CC2)c1 [Compound 9]
2. O=C(Cn1ccc2ccccc21)Nc1cccc(OP(=O)(O)O)c1 [Compound 6]
3. O=C(c1ccc([N+](=O)[O-])cc1)c1coc2ccc(OP(=O)(O)O)cc12 [Compound 5]
4. O=C(C=Cc1ccccc1C(F)(F)F)c1cccc(OP(=O)(O)O)c1 [Compound 3]
5. O=C(C=Cc1c(F)c(F)c(F)c(F)c1F)c1cccc(OP(=O)(O)O)c1 [Compound 2]
6. CC(=O)Nc1ccc(C=CC(=O)c2cccc(OP(=O)(O)O)c2)cc1 [Compound 4]
7. COc1ccc(-c2cc(OP(=O)(O)O)cc(-c3ccc(Cl)cc3)c2)cc1 [Compound 1]

1: 41; 2: 46; 3: 87; 4: 37; 5: 51; 6: 57; 7: 73
